# target.of.assay: human glucagon receptor (Homo sapiens (Human), UniProt P47871)
# Sequence (P47871 26-477): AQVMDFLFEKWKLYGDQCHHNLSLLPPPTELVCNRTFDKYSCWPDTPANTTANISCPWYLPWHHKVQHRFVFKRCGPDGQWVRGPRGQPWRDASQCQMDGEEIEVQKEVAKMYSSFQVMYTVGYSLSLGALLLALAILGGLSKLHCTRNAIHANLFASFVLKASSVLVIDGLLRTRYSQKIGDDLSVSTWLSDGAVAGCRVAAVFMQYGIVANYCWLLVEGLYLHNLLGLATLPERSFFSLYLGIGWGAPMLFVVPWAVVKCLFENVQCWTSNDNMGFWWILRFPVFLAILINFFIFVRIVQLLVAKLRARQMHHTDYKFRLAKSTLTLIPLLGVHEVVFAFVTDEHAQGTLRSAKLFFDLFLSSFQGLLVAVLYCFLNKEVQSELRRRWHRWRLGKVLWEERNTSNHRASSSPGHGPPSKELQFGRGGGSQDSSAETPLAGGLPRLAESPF
# method.summary: Glucagon cAMP Assay
# Type: cell-based
# particulars: CHOK1 cells stably transfected with the human glucagon receptor; 100 pM glucagon challenge; Kb from IC50 by modified Cheng-Prusoff equation
reported.metric: Kb (nM)

1. Cc1cc2cc(F)ccc2nc1NC(c1ccc(C(=O)NCCC(=O)O)cc1)C1CC(C)(C)C1 (racemic) [Example 20]
2. Cc1cc2ccccc2nc1NC(c1ccc(C(=O)NCCC(=O)O)cc1)C1CC(C)(C)C1 (single isomer, unassigned; isomer 1) [Example 32]
3. Cc1cc2ccc(F)cc2nc1NC(c1ccc(C(=O)NCCC(=O)O)cc1)C1CC(C)(C)C1 (racemic)
## Input Rank the compounds listed above in increasing order of Kb. List the labels, following the order given in the request.
## Output 2, 1, 3

A. CC1(C)CC(C(Nc2cnc3ccc(F)cc3c2)c2ccc(C(=O)NCCC(=O)O)cc2)C1 (racemic)
B. Cc1c(NC(CC(C)C)c2ccc(C(=O)NCCC(=O)O)cc2)cnc2ccccc12 (stereo not shown)
C. Cc1cc(NC(CC(C)C)c2ccc(C(=O)NCCC(=O)O)cc2)nc2ccccc12 (racemic)
D. O=C(O)CCNC(=O)c1ccc(C(CCC(F)(F)F)Nc2cnc3ccccc3c2)cc1 (racemic)
E. Cc1cc2cc(F)ccc2nc1NC(c1ccc(C(=O)NCCC(=O)O)cc1)C1CC(C)(C)C1 (single isomer, unassigned; isomer 2) [Example 35]
## Input # sort list by recorded Kb, greatest to least Thanks in advance for listing the labels in the requested order.
## Output D, C, B, A, E

a. Cc1cc2ccccc2nc1NC(c1ccc(C(=O)NCCC(=O)O)cc1)C1CC(C)(C)C1 (racemic) [Example 19]
b. CC(C)CC(Nc1cnc2ccccc2n1)c1ccc(C(=O)NCCC(=O)O)cc1 (racemic)
c. Cc1ccc2ncc(NC(CC(C)C)c3ccc(C(=O)NCCC(=O)O)cc3)cc2c1 (stereo not shown)
d. Cc1cc2ccccc2nc1NC(c1ccc(C(=O)NCCC(=O)O)cc1)C1CC(C)(C)C1 (single isomer, unassigned; isomer 2) [Example 33]
## Input hey, can you rank those compounds up there by Kb? biggest number first please # list labels per requested ordering
## Output d, b, c, a

* * *

# target.of.assay: human glucagon receptor (Homo sapiens (Human), UniProt P47871)
# method.summary: Glucagon cAMP Assay
# Assay type: cell-based
# particulars: CHOK1 cells stably transfected with the human glucagon receptor; 100 pM glucagon challenge; Kb from IC50 by modified Cheng-Prusoff equation
# Protocol: The Cisbio cAMP detection assay is used to determine the ability of punitive glucagon antagonist to block glucagon induced cAMP production. Potential glucagon antagonists are re-suspended and diluted in 100% DMSO. […] Plates are incubated for an additional 60 min at room temperature prior to being read on the Perkin Elmer fluorescent plate reader. […] Converted data is then analyzed using the Pfizer data analysis program. IC50 values are determined from the generated sigmoidal dose response curves. […]
reported.metric: Kb (nM)

The examples below pair each entry with its known result.
compound	target.of.assay	Kb [nM]
CC1(C)CC(C(Nc2cnc3ccccc3c2)c2ccc(C(=O)NCCC(=O)O)cc2)C1 (stereo not shown)	human glucagon receptor (Homo sapiens (Human), UniProt P47871)	140
Cc1cc2cc(F)ccc2nc1NC(c1ccc(C(=O)NCCC(=O)O)cc1)C1CC(C)(C)C1 (single isomer, unassigned; isomer 1) [Example 34]	human glucagon receptor (Homo sapiens (Human), UniProt P47871)	1180
Cc1cc2ccccc2nc1NC(CC(C)C)c1ccc(C(=O)NCCC(=O)O)cc1 (single isomer, unassigned; isomer 2) [Example 31]	human glucagon receptor (Homo sapiens (Human), UniProt P47871)	1300
CCC[C@@H](Nc1nc2ccccc2cc1C)c1ccc(C(=O)NCCC(=O)O)cc1	human glucagon receptor (Homo sapiens (Human), UniProt P47871)	110
CC(C)CC(Nc1ccc2cccc(Cl)c2n1)c1ccc(C(=O)NCCC(=O)O)cc1 (racemic)	human glucagon receptor (Homo sapiens (Human), UniProt P47871)	140

P. Cc1cc2ccccc2nc1NC(CC(C)C)c1ccc(C(=O)NCCC(=O)O)cc1 (racemic) [Example 11]
Q. CC(C)CC(Nc1ccc2ccc(C(F)(F)F)cc2n1)c1ccc(C(=O)NCCC(=O)O)cc1 (racemic)
## Input From the recorded data, which exceeds the other in Kb: P or Q ? In your reply, give the label of the chosen option.
## Output Q
(Q: 1100 nM, P: 91 nM)
